Target: T1, DR3-8i (human)
T1 construct: also called purified monomeric DR3-8i antigen protein
T1 chain: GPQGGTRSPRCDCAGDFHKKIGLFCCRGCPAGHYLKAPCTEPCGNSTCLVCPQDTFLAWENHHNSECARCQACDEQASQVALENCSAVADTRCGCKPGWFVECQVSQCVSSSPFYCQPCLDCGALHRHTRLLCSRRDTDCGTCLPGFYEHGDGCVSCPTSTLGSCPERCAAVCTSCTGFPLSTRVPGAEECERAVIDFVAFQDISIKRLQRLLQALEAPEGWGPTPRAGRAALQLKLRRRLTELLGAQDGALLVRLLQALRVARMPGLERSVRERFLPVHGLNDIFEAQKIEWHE
Test: BLI, IgG captured on protein A, DR3-8i in solution; Experiment 1
Consider the following binders; for each one, report its Kd.
Field: value (include unit after the number)

A selection of reference data follows.
*Q* Reported Kd for VHg2/VLs10 (antibody, human IgG1, V domains shown, human IgG1; also called VHg2_VLg10) VH: QMQLVQSGGGLVKPGGSLRLSCAASGFTFSSYAMSWIRQAPGKGLEWVSTISDGDSYSYFPDSVKDRFTISRDNAKNSLYLQMNSLRAEDTAVYYCTRDRIYGSVQYYAMDYWGRGTLVTVSS VL: ETTLTQSPGTLSLSPGERATLSCRASQSVSSSSLAWYQQKPGQAPRLLIYGASSRATGIPDRFSGSGSGTDFTLTISRLEPEDFAVYYCHQYGGSWTFGKGTKVEIK : what is it?
*A* 0.41 nM

*Q* Reported Kd for VHg10/VLg4 (antibody, human IgG1, V domains shown, human IgG1) VH: EVQLVESGGGLVQPGGSLRLSCAASGFTFSSYAMSWVRQAPGKGLEWVSTISDGDSYSYFPDSVKDRFTISRDNSKNTLYLQMNSLRAEDTAVYYCARDRIYGSVQYYAMDYWGQGTLVTVSS VL: DVVMTQSPDSLAVSLGERATISCRASESVEFSGTSLMQWYQQKPRQPLKLLIYAASNVESGVPDRFSGSGSGTDFTLTISSLQAEDVAVYYCQQSRKLPYTFGQGTRLEIK : what is it?
*A* 0.242 nM

*Q* Reported Kd for VHg6/VLg13 (antibody, human IgG1, V domains shown, human IgG1) VH: QVQLQQSGGGLVQPGGSLRLSCAASGFTFSSYAMSWVRQAPGKGLEWVATISDGDSYSYFPDSVKDRFTISRDNARNSLYLQMNSLRAEDTAVYYCARDRIYGSVQYYAMDYWGRGTLVTVSS VL: DIQMTQSPSSLSASVGDRVTITCRASESVEFSGTSLMQWYQQKPGKAPKLLIYAASNVESGVPSRFSGSGSGTDFTFTISSLQPEDIATYYCQQSRKLPYTFGQGTKLEIK : what is it?
*A* 0.225 nM

*Q* Reported Kd for VHg1/VLg11 (antibody, human IgG1, V domains shown, human IgG1; also called H1L11; VHg1/VL11) VH: QVQLVQSGGGLVQPGGSLRLSCAASGFTFSSYAMSWVRQAPGKGLEWVSTISDGDSYSYFPDSVKDRFTISRDNSKNTLYLQMNSLRAEDTSVYYCARDRIYGSVQYYAMDYWGQGTLVTVSS VL: DIVMTQSPDSLAVSLGERATINCRASESVEFSGTSLMQWYQQKPGQPPKLLIYAASNVESGVPDRFSGSGSGTDFTLTISSLQAEDVAVYYCQQSRKLPYTFGQGTKLEIK : what is it?
*A* 0.001 nM

*Q* Reported Kd for VHg6/VLg12 (antibody, human IgG1, V domains shown, human IgG1) VH: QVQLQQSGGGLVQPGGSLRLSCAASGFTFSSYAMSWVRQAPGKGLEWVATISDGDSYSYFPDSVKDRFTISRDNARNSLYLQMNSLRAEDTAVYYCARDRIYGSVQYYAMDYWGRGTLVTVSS VL: EIVLTQSPATLSLSPGERATLSCRASESVEFSGTSLMQWYQQKPGQAPRLLIYAASNVESGIPARFSGSGSGTDFTLTISSLEPEDFAVYYCQQSRKLPYTFGQGTKLEIK : what is it?
*A* 0.227 nM

Would you mind listing Kd for each of the following binders?
1. B9-hIgG1 (antibody, V domains shown, chimeric: mouse B9 variable regions, human IgG1; also called B9-H1; Non-humanised B9) VH: EVQLVESGGGLVKPGGSLKLSCSASGFTFSSYAMSWVRQTPEKRLEWVATISDGDSYSYFPDSVKDRFIISRDNAKNNLFLQMSHLRSEDTAMYYCTRDRIYGSVQYYAMDYWGQGTSVTVSS VL: DIVLTQSPASLAVSLGQRATISCRASESVEFSGTSLMQWYQQRPGLPPKLLIYAASNVESGVPARFSGSGSGTDFSLNIHPVEEDDIAMYFCQQSRKLPYTFGGGTKLEIN
2. VHg1/VLg12 (antibody, human IgG1, V domains shown, human IgG1) VH: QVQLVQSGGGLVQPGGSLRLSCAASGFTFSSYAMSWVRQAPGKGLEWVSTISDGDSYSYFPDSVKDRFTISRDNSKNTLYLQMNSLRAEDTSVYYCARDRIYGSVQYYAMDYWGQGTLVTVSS VL: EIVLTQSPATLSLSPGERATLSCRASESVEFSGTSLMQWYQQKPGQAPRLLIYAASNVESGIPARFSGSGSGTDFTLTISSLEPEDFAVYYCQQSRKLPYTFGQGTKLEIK
3. VHg6/VLg2 (antibody, human IgG1, V domains shown, human IgG1) VH: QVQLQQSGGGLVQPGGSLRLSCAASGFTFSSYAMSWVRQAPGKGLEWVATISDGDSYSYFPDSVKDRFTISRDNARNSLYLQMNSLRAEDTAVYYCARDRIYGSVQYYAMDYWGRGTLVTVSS VL: DIQLTQSPSSLSASVGDRVTITCRASESVEFSGTSLMQWYQQKAGLAPKLLIYAASNVESGVPSRFSGSGSGTDFTLTISSLQPEDFGTYYCQQSRKLPYTFGQGTRLEIK
4. VHg2/VLg11 (antibody, human IgG1, V domains shown, human IgG1) VH: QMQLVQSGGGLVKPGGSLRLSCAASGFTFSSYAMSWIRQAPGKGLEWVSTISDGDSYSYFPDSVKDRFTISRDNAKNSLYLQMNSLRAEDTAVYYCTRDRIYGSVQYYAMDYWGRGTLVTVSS VL: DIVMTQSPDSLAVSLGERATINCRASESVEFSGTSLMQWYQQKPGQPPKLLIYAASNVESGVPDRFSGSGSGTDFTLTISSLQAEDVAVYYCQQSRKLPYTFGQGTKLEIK

*A*
0.327 nM
0.001 nM
0.227 nM
0.0636 nM

Would you mind listing Kd for each of the following binders?
1. VHg3/VLg12 (antibody, human IgG1, V domains shown, human IgG1) VH: EVQLVQSGGGLVKPGGSLRLSCAASGFKFSSYAMSWVRQAPGKGLEWLSTISDGDSYSYFPDSVKDRFIISRDNAKNSLYLQMNSLRVEDTGVYYCARDRIYGSVQYYAMDYWGQGTLVTVSS VL: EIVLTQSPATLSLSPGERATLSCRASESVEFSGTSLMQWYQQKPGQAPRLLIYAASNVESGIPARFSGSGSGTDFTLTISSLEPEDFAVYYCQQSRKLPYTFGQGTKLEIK
2. VHg10/VLg5 (antibody, human IgG1, V domains shown, human IgG1) VH: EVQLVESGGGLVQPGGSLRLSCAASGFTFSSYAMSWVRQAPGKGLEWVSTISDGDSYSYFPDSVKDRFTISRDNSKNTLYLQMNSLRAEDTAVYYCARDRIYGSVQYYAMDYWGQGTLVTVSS VL: EIVLTQSPGTLSLSPGERGTLSCRASESVEFSGTSLMQWYQQKPGQAPRLLIYAASNVESGIPDRFSGSGSETDFTLTISRLEPEDLAVYYCQQSRKLPYTFGQGTRLEIK

*A*
["0.39 nM", "0.233 nM"]
